Numbers sourced from PubChem BioAssay (NCI).

- Tested on: HCT-15 colon
- experiment_description: NCI tumour cell line growth inhibition, 48 h
experimental_endpoint: TGI

• CSc1ccc2c(cc1=O)C(NC(=O)c1ccc(OC(C)=O)cc1)CCc1cc(O)c(O)c(O)c1-2 (stereo unspecified) = 34.9 µM
• C#CCNC(=O)CC[C@]1(C)[C@H]2CC[C@@H]3[C@@H]([C@@](C)(O)CCC=C(C)C)CC[C@@]3(C)[C@]2(C)CC[C@H]1C(=C)C = 59.3 µM
• Cc1cc(NS(=O)(=O)c2ccc(NC(=O)c3cccc4c(Nc5ccc(S(=O)(=O)Nc6cc(C)on6)cc5)c5ccccc5nc34)cc2)no1 = > 100 µM
• O=C(Nc1nc2ccc([N+](=O)[O-])cc2[n+]([O-])n1)C(F)(F)F = 98.8 µM
• O=c1c2cc(Br)cc(Br)c2[nH]c(=S)n1-c1ccccc1 = > 100 µM
• Cn1cc(C[C@@H](N)C(=O)O)c2ccccc21 = > 100 µM
• COC(=O)C1CCC(Nc2cccc(C(F)(F)F)c2)=N1 (stereo unspecified) = > 100 µM
• CC[O-].Cc1ccc2cccc([O-])c2n1.Cc1ccc2cccc([O-])c2n1.Cc1ccc2cccc([O-])c2n1.[Ti+4] = > 100 µM
• CC(C)[Si](OC1=C(C(=O)N(C)c2ccccc2Cl)CCC1)(C(C)C)C(C)C = 30.6 µM
• CCN(CC)CCNC(=O)c1cccc2cc3ccccc3nc12 = 32.5 µM
• CC(C)=CC(=O)OC1C2C(C)C(=O)OC2C(O)C(C)C2C=CC(=O)C21C (stereo unspecified) = 8.52 µM
• O=C(N/N=C1/C(=O)c2c3ccccc3cc3cccc1c23)c1cccc(Cl)c1 = > 100 µM
• Cc1ccc(CS(=O)(=O)C/N=c2\sc3ccccc3nc2/C=C(\O)c2ccc(Cl)cc2)cc1 = > 10 µM
• COc1ccccc1S(=O)Nc1ccccc1 (stereo unspecified) = > 100 µM
• CN(C)CC(CO)(CN(C)C)CN(C)C = > 100 µM
• CC[C@@H](C(=O)[C@@H](C)[C@@H](O)[C@H](C)[C@@H]1O[C@@H]([C@@H](CC)C(=O)O)CC[C@@H]1C)[C@H]1OC2(C=C[C@@H](O)[C@]3(CC[C@@](C)([C@H]4CC[C@](O)(CC)[C@H](C)O4)O3)O2)[C@H](C)C[C@@H]1C (stereo partly specified) = > 50 µM
• CCOC(=O)c1cccc([N+](=O)[O-])c1N = > 100 µM
• CC(=O)OCC12C(OC(C)=O)C[C@@H](C)C3(CC(c4ccoc4)OC3=O)C1CCC(O)C21CO1 (stereo partly specified) = > 100 µM
• C=C(C)[C@@]1(O)CCC[C@H]1NC(=O)OC(C)(C)C = > 100 µM
• CCn1c(=O)ccc2ccc(N(CCO)CCO)nc21 = > 100 µM
• CC(=O)OC1CCC2(C)C(=CCC3C2CCC2(C)C(C(C)C(=O)O)CCC32)C1 (stereo unspecified) = > 100 µM
• O=C(Nc1ccccc1Br)c1cccc([N+](=O)[O-])c1O = 25.4 µM
• O=C1CC(=O)c2c(Cl)sc(Cl)c21 = > 100 µM
• Cc1cc(-c2nc(-c3ccc(OC(F)(F)F)cc3)no2)nn1Cc1ccnc(N2CCN(C3CC3)CC2)c1 = > 62 µM
• COC(=O)Nc1nc2cc3c(cc2s1)OCCO3 = > 50 µM
• Nc1ncnc2c1ncn2C1CCC(CO)O1 (stereo unspecified) = > 100 µM
• COc1ccc(/C=N/NC(=O)NCCCN(C)C)cc1 = > 100 µM
• COc1cc2cc[n+]3c4cc(OC)c(OC)cc4c(C)cc3c2cc1OC = > 100 µM
• O=C(NNC(=O)c1ccncc1)c1ccncc1 = > 100 µM
• Cc1nc2ccccc2c(=O)n1CC(=O)O = > 100 µM
• C=C(CS(=O)(=O)c1ccccc1)[P+](c1ccccc1)(c1ccccc1)c1ccccc1 = > 100 µM
• CC(=O)OC1CC2(c3ccccc3)C(=O)c3ccccc3N2O1 (stereo unspecified) = > 100 µM
• C=C(C)[C@@H]1CCC2=C[C@@H](OC2=O)[C@@H](C(=C)C)C(=O)/C=C(/C)C(=O)C1 = 69.7 µM
• C#COc1cccc(Nc2ncnc3ncc(NC(=O)CCl)cc23)c1 = > 62.5 µM
• COc1ccc(-c2nn(-c3cccc(NC(=O)Nc4cc(C(F)(F)F)cc(C(F)(F)F)c4)c3)cc2-c2ccncc2)cc1Cl = 4.08 µM
• CO/N=C1/c2sccc2[C@H](NC(=O)C(F)(F)F)[C@@H]1O = > 100 µM
• COC(=O)N/N=C/c1oc(-c2ccccc2)c(-c2ccccc2)c1[N+](=O)[O-] = > 100 µM
• CCCCNC(=O)Nc1c(C(N)=O)c2n(c1C(=O)OCC)CCCCC2 = > 100 µM
• Nc1ccccc1NC(=O)c1ccc(CN2CCC/C(=C\c3cccc(Cl)c3)C2=O)cc1 = > 100 µM
• Oc1c(-c2ccccc2)sc2ccccc12 = > 100 µM
• N#Cc1c(-c2ccccc2)cc(-c2ccccc2)n(CCCCC(=O)NO)c1=O = 13.6 µM
